Target: BRD3(2) (Homo sapiens, UniProt Q15059)
Construct: T7 phage strains displaying bromodomains were grown in parallel
Sequence (Q15059 306-415 limits assumed): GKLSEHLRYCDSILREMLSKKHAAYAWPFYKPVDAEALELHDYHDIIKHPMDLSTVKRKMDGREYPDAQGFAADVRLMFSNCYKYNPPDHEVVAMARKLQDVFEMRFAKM
Test: BromoKdMAX (BROMOscan, DiscoverX)
measurement_name: Kd

Data request: Reported Kd for COc1cncc(-c2cc(Nc3cccc(F)c3)nc([C@@H]3CC[C@H](C)N(C(C)=O)C3)n2)c1 : what is it?
Data returned: > 10 µM

---

Target: SMARCA4 (Homo sapiens, UniProt P51532)
Construct: T7 phage strains displaying bromodomains were grown in parallel
Sequence (P51532 1453-1564 limits assumed): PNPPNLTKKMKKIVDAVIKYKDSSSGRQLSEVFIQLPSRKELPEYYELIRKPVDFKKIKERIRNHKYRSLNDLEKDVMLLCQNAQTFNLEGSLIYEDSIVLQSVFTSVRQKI
Assay: BromoKdMAX (BROMOscan, DiscoverX)
pKd: −log10 of the molar value.
measurement_name: pKd

Data request: Reported pKd for COc1cncc(-c2cc(Nc3cccc(F)c3)nc([C@@H]3CC[C@H](C)N(C(C)=O)C3)n2)c1 [Compound 00004] : what is it?
Data returned: < 5.00

---

Target: BRD3(1) (Homo sapiens, UniProt Q15059)
Construct: T7 phage strains displaying bromodomains were grown in parallel
Sequence (Q15059 34-140 limits assumed): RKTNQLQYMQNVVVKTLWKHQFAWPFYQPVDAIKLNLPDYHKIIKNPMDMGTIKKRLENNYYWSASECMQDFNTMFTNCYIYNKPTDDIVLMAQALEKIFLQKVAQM
Assay: BromoKdMAX (BROMOscan, DiscoverX)
pKd: −log10 of the molar value.
measurement_name: pKd

Data request: Reported pKd for COc1cncc(-c2cc(Nc3cccc(F)c3)nc([C@@H]3CC[C@H](C)N(C(C)=O)C3)n2)c1 : what is it?
Data returned: < 5.00

---

System: A375 cells
Test: Assay 1: A375 cells treated with S1152, S1008 and compound, immunofluorescence (sc-365823) signal
Type: cell-based
Conditions: 1 μM S1152 + 0.5 μM S1008, one day
measurement_name: EC50

* CC(=O)N1C[C@H](c2nc(Nc3ccnc(C(C)C)c3)cc(-c3cnccn3)n2)CC[C@@H]1C | < 200 nM

Could I get EC50 for every one of these entries?
1. COCC(=O)Nc1cccc(Nc2cc(-c3cccnc3)nc([C@@H]3CC[C@H](C)N(C(C)=O)C3)n2)c1
2. CC(=O)N1C[C@H](c2nc(Nc3ccc4c(c3)NC(=O)C4)cc(-c3cccnc3)n2)CC[C@@H]1C
3. CC(=O)N1C[C@H](c2nc(Nc3ccnc(C(F)F)c3)cc(-c3cnccn3)n2)CC[C@@H]1C
4. CC(=O)N1C[C@H](c2nc(Nc3ccc4nccnc4c3)cc(-c3cccnc3)n2)CC[C@@H]1C
5. CC(=O)N1C[C@H](c2nc(Nc3ccc4[nH]ncc4c3)cc(-c3cccnc3)n2)CC[C@@H]1C
6. CC(=O)N1C[C@H](c2nc(Nc3ccc4nccn4c3)cc(-c3cccnc3)n2)CC[C@@H]1C
7. CC(=O)N1C[C@H](c2nc(Nc3ccnc(C(F)(F)F)c3)cc(-c3cccnc3)n2)CC[C@@H]1C

Data returned:
< 200 nM
200 to 1000 nM
< 200 nM
< 200 nM
< 200 nM
1000 to 10000 nM
< 200 nM

Could I get EC50 for every one of these entries?
1. CC(=O)N1C[C@H](c2nc(Nc3cc(F)cc(-c4cnn(C)c4)c3)cc(-c3cccnc3)n2)CC[C@@H]1C
2. CC(=O)N1C[C@H](c2nc(Nc3ccc4[nH]ccc4c3)cc(-c3cccnc3)n2)CC[C@@H]1C
3. CC(=O)N1C[C@H](c2nc(Nc3cccc(NC(=O)c4ccccc4)c3)cc(-c3cccnc3)n2)CC[C@@H]1C

Data returned:
1. < 200 nM
2. < 200 nM
3. < 200 nM

---

Target: ATAD2B (Homo sapiens)
Construct: T7 phage strains displaying bromodomains were grown in parallel
Sequence (Q9ULI0 951-1066 limits assumed): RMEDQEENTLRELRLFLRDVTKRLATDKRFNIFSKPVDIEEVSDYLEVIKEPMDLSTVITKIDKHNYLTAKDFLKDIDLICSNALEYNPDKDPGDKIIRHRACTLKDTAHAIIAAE
Experiment: BromoKdMAX (BROMOscan, DiscoverX)
measurement_name: Kd

Data request: Reported Kd for COc1cncc(-c2cc(Nc3cccc(F)c3)nc([C@@H]3CC[C@H](C)N(C(C)=O)C3)n2)c1 : what is it?
Data returned: > 10 µM

---

Tested on: A375 cells
Assay: Assay 1: A375 cells treated with S1152, S1008 and compound, immunofluorescence (sc-365823) signal
Type: cell-based
Conditions: 1 μM S1152 + 0.5 μM S1008, one day
Description: One thousand four hundred A375 cells were seeded in each well of a 384 well microplate. […] After one hour at ambient temperature in the dark, signal in wells was measured with a Acumen Cellista. […] Signal in FL2 (500-530 nm) was measured in defined objects. […]
pEC50: −log10 of the molar value.
measurement_name: pEC50

// worked examples, pEC50 included
- CC(=O)N1C[C@H](c2nc(Nc3ccnc(F)c3)cc(-c3cncc(O)c3)n2)CC[C@@H]1C: 5.00 to 6.00
- CC(=O)N1C[C@H](c2nc(Nc3cccc(O)c3)cc(-c3cccnc3)n2)CC[C@@H]1C: > 6.70
- CC(=O)Nc1cccc(Nc2cc(-c3cncc4c3ccn4C)nc([C@@H]3CC[C@H](C)N(C(C)=O)C3)n2)c1: > 6.70
- CC(=O)N1C[C@H](c2nc(Nc3ccnc(F)c3)cc(-c3cnccn3)n2)CC[C@@H]1C: > 6.70
- CC(=O)N1C[C@H](c2nc(-c3cnccn3)cc(N(C)c3ccnc(C)c3)n2)CC[C@@H]1C: 6.00 to 6.70
- CC(=O)N1C[C@H](c2nc(Nc3cncc(N4CCCC4=O)c3)cc(-c3cccnc3)n2)CC[C@@H]1C: 5.00 to 6.00

Consider now this further compound.
Data request: Reported pEC50 for CC(=O)N1C[C@H](c2nc(Nc3cc(C)nc(C(F)F)c3)cc(-c3cnccn3)n2)CC[C@@H]1C : what is it?
Data returned: > 6.70

---

Target: TAF1L(2) (Homo sapiens, UniProt Q8IZX4)
Construct: T7 phage strains displaying bromodomains were grown in parallel
Sequence (Q8IZX4 1517-1626 limits assumed): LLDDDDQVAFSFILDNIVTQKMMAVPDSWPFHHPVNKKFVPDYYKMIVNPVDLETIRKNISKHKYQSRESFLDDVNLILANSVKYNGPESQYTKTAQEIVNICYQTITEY
Assay: BromoKdMAX (BROMOscan, DiscoverX)
Experimental: A BromoKdMAX was performed at DiscoverX. BROMOscan™ is a novel industry leading platform for identifying small molecule bromodomain inhibitors. Based on proven KINOMEscan™ technology, BROMOscan™ employs a proprietary ligand binding site-directed competition assay to quantitatively measure interactions between test compounds and bromodomains. […]
pKd: −log10 of the molar value.
measurement_name: pKd

Data request: Reported pKd for COc1cncc(-c2cc(Nc3cccc(F)c3)nc([C@@H]3CC[C@H](C)N(C(C)=O)C3)n2)c1 : what is it?
Data returned: < 5.00

---

Provide the reported EC50 of each item.
System: A375 cells
Assay: Assay 1: A375 cells treated with S1152, S1008 and compound, immunofluorescence (sc-365823) signal
Format: cell-based
Details: 1 μM S1152 + 0.5 μM S1008, one day
Method: One thousand four hundred A375 cells were seeded in each well of a 384 well microplate. […] After one hour at ambient temperature in the dark, signal in wells was measured with a Acumen Cellista. […] Signal in FL2 (500-530 nm) was measured in defined objects. […]

- CC(=O)N1C[C@H](c2nc(Nc3ccnc(C)c3)cc(-c3cncc(N4CC(C(N)=O)C4)c3)n2)CC[C@@H]1C: > 10000 nM
- CC(=O)N1C[C@H](c2nc(Nc3cccc4c3cnn4C)cc(-c3cccnc3)n2)CC[C@@H]1C: < 200 nM
- CC(=O)N1C[C@H](c2nc(Nc3cccc(C(F)F)c3)cc(-c3cccnc3)n2)CC[C@@H]1C: < 200 nM
- CC(=O)N1C[C@H](c2nc(Nc3cccc(N4CCOC4=O)c3)cc(-c3cccnc3)n2)CC[C@@H]1C: < 200 nM
- CC(=O)N1C[C@@H](c2nc(Nc3ccncc3)cc(-c3cccnc3)n2)CC[C@H]1C: > 10000 nM
- CC(=O)N1C[C@H](c2nc(Nc3cccc(-n4ccnn4)c3)cc(-c3cccnc3)n2)CC[C@@H]1C: < 200 nM

Consider now this further compound.
Data request: Reported EC50 for CC(=O)N1C[C@H](c2nc(Nc3cccc(-c4nnc(C)o4)c3)cc(-c3cccnc3)n2)CC[C@@H]1C : what is it?
Data returned: < 200 nM

---

Provide the reported pEC50 of each item.
System: A375 cells
Assay: Assay 1: A375 cells treated with S1152, S1008 and compound, immunofluorescence (sc-365823) signal
Assay type: cell-based
Settings: 1 μM S1152 + 0.5 μM S1008, one day
pEC50: −log10 of the molar value.

// worked examples, pEC50 included
* CC(=O)N1C[C@H](c2nc(Nc3ccnc(C)c3)cc(-c3cncc(C(=O)N(C)C)c3)n2)CC[C@@H]1C | < 5.00
* CC(=O)N1C[C@H](c2nc(Nc3cc(F)cc(-c4cnn(C)c4)c3)cc(-c3cncc(OCCO)c3)n2)CC[C@@H]1C | > 6.70
* CC(=O)N1C[C@H](c2nc(Nc3cccc(-c4cnn(C)c4)c3)cc(-c3cnccn3)n2)CC[C@@H]1C | > 6.70
* CC(=O)N1C[C@H](c2nc(Nc3ccnc(C)c3)cc(-c3cncc4c3cnn4C)n2)CC[C@@H]1C | > 6.70
* CC(=O)N1C[C@H](c2nc(Nc3cccc(C)c3)cc(-c3cccnc3)n2)CC[C@@H]1C(F)(F)F (racemic) | 6.00 to 6.70
* CC(=O)N1C[C@H](c2nc(Nc3ccnc(C)c3)cc(-c3cncc4c3ccn4C)n2)CC[C@@H]1C | > 6.70
* CC(=O)N1C[C@H](c2nc(Nc3cccc4nn(C)cc34)cc(-c3cnccn3)n2)CC[C@@H]1C | > 6.70
* CC(=O)N1C[C@H](c2nc(Nc3cccc(NC(=O)C4CC4)c3)cc(-c3cccnc3)n2)CC[C@@H]1C | > 6.70
* CCn1cc(-c2cc(Nc3cc(-c4cccnc4)nc([C@@H]4CC[C@H](C)N(C(C)=O)C4)n3)ccn2)cn1 | > 6.70
* CC(=O)N1C[C@H](c2nc(Nc3cccc(N4CCC4=O)c3)cc(-c3cccnc3)n2)CC[C@@H]1C | > 6.70

Could I get pEC50 for every one of these entries?
1. CC(=O)N1C[C@H](c2nc(Nc3cncc(C(F)F)c3)cc(-c3cnccn3)n2)CC[C@@H]1C
2. CC(=O)N1C[C@H](c2nc(Nc3cccc(-n4cnnn4)c3)cc(-c3cccnc3)n2)CC[C@@H]1C
3. CC(=O)Nc1cc(F)cc(Nc2cc(-c3cccnc3)nc([C@@H]3CC[C@H](C)N(C(C)=O)C3)n2)c1
4. CC(=O)N1C[C@H](c2nc(Nc3ccnc(C)c3)cc(-c3cncc(C4COC4)c3)n2)CC[C@@H]1C
5. CC(=O)N1C[C@H](c2nc(Nc3cccc(-c4cn(C)nn4)c3)cc(-c3cncc4c3ccn4C)n2)CC[C@@H]1C
6. CC(=O)N1C[C@H](c2nc(Nc3cccc4nn(C)cc34)cc(-c3cccnc3)n2)CC[C@@H]1C
7. CC(=O)N1C[C@H](c2nc(Nc3ccnc(C)c3)cc(-c3cc(C)cs3)n2)CC[C@@H]1C
8. CC(=O)N1C[C@H](c2nc(Nc3cccc(F)c3)cc(-c3cccnc3)n2)CC[C@@H]1C

Data returned:
1. > 6.70
2. > 6.70
3. > 6.70
4. > 6.70
5. > 6.70
6. > 6.70
7. > 6.70
8. > 6.70

Could I get pEC50 for every one of these entries?
1. CC(=O)N1C[C@H](c2nc(Nc3ccccc3)cc(-c3cncnc3)n2)CC[C@@H]1C (racemic)
2. C[C@H]1CC[C@@H](c2nc(Nc3cccc(F)c3)cc(-c3cccnc3)n2)CN1C(N)=O
3. CC(=O)N1C[C@H](c2nc(Nc3cccc4c3cnn4C)cc(-c3cnccn3)n2)CC[C@@H]1C
4. COCCOc1cncc(-c2cc(Nc3cc(F)cc(-c4cnn(C)c4)c3)nc([C@@H]3CC[C@H](C)N(C(C)=O)C3)n2)c1

Data returned:
6.00 to 6.70
5.00 to 6.00
> 6.70
> 6.70

Could I get pEC50 for every one of these entries?
1. CC(=O)N1C[C@H](c2nc(Nc3cccc(-n4cncn4)c3)cc(-c3cccnc3)n2)CC[C@@H]1C
2. CC(=O)N1C[C@H](c2nc(Nc3ccnc(C)c3)cc(-c3cncc(C)c3)n2)CC[C@@H]1C
3. CC(=O)N1C[C@H](c2nc(Nc3cncc(C)c3)cc(-c3cccnc3)n2)CC[C@@H]1C (racemic) [Compound 00096]
4. CC(=O)N1C[C@H](c2nc(Nc3cccc(-c4nnco4)c3)cc(-c3cccnc3)n2)CC[C@@H]1C

Data returned:
["> 6.70", "> 6.70", "> 6.70", "> 6.70"]

Could I get pEC50 for every one of these entries?
1. CC(=O)N1C[C@H](c2nc(Nc3ccnc(-c4cnn(C)c4)c3)cc(-c3cccnc3)n2)CC[C@@H]1C
2. CC(=O)Nc1cc(Nc2cc(-c3cnccn3)nc([C@@H]3CC[C@H](C)N(C(C)=O)C3)n2)ccn1

Data returned:
["> 6.70", "6.00 to 6.70"]
